- method: ATG_NF_kB_CIS: Attagene CIS-FACTORIAL HepG2 Assay for human Nuclear Factor Kappa B (NF-kB) (AID 2282991)
- experimental_setup: HepG2 Attagene cis-factorial NF-kB reporter mRNA; actives raise or lower the signal
The source made the active and inactive calls. Rule for the calls: active = hit-call score of the fitted dose curve at least 0.9, where 1 is the maximum; inactive = score below 0.9.
readout_kind: outcome

INSERT INTO assay_data (compound, result) VALUES
  ('O=C(C=C(O)C(F)(F)F)C(F)(F)F', 'inactive'),
  ('Cc1ccccc1C(OCCN(C)C)c1ccccc1 (stereo not given)', 'inactive'),
  ('Cc1ccc(N=Nc2c(O)ccc3ccccc23)c(C)c1', 'inactive'),
  ('CCCCCc1ccc(O)cc1', 'inactive'),
  ('O=C(c1cc(O)c(O)c(O)c1)c1ccc(O)c(O)c1O', 'inactive'),
  ('O=C1Cc2ccccc2N1c1c(Cl)cccc1Cl', 'inactive'),
  ('CC(=O)CC(C)C', 'inactive'),
  ('FC(F)(F)C1(F)C(F)(F)C(F)(F)C(F)(F)C(F)(C(F)(F)F)C1(F)F (stereo not given)', 'inactive'),
  ('CC1CNCC(C)O1 (stereo not given)', 'inactive'),
  ('CCOCCOCC', 'inactive');

* * *

- Read-out: Urokinase-type plasminogen activator receptor (uPAR), PLAUR (gene 5329)
- method: BSK_4H_uPAR: BioMAP Diversity Plus: 4H Assay for Urokinase-type plasminogen activator receptor (uPAR) Biomarker Activity (AID 2283030)
- experimental_setup: primary human endothelial cells (HUVEC); actives raise or lower the signal
The source made the active and inactive calls. How the source made its calls: active means hit-call score of the fitted dose curve at least 0.9, where 1 is the maximum; inactive means score below 0.9.
Outcome codes: true (active), false (inactive)

INSERT INTO results (structure_smiles, class_assignment) VALUES
  ('CC[N+](CC)(CC)Cc1ccccc1', 'false'),
  ('O=C(c1ccccc1)c1ccccc1', 'false'),
  ('O=C(O)CCC(F)(F)C(F)(F)C(F)(F)C(F)(F)C(F)(F)C(F)(F)F', 'false'),
  ('C=CC(=C)CC/C=C(\C)CCC=C(C)C', 'false'),
  ('Oc1ccc(Cc2ccccc2O)cc1', 'false'),
  ('CN(CCO)S(=O)(=O)C(F)(F)C(F)(F)C(F)(F)C(F)(F)C(F)(F)C(F)(F)C(F)(F)C(F)(F)F', 'false'),
  ('CN(C)c1ccc(C(=C2C=CC(=[N+](C)C)C=C2)c2ccccc2)cc1', 'true'),
  ('Cc1[nH]nc2c1N=C(c1ccccc1Cl)c1cc([N+](=O)[O-])ccc1N2', 'true'),
  ('CC1=NN(c2ccccc2)C(=O)C1', 'false'),
  ('OCC(F)(F)C(F)(F)C(F)(F)C(F)(F)C(F)(F)C(F)(F)C(F)(F)C(F)(F)C(F)(F)C(F)(F)C(F)(F)F', 'false'),
  ('COc1cccc(O)c1', 'false'),
  ('CCCCCCCCCCCCCCC', 'false'),
  ('Oc1cc2ccccc2cc1O', 'false'),
  ('Cc1ccc(C(=O)c2ccccc2)cc1', 'false'),
  ('O=C1OC2(c3ccccc31)c1cc(I)c(O)c(I)c1Oc1c2cc(I)c(O)c1I', 'true'),
  ('Cc1ccc(N=Nc2c(O)ccc3ccccc23)c(C)c1', 'false'),
  ('O=C(NO)c1ccccc1', 'false'),
  ('O=C1NS(=O)(=O)c2ccccc21', 'false'),
  ('CCCCCCCCCCCCOS(=O)(=O)O', 'false'),
  ('CCOC(=O)CN[C@@H](C(=O)N1CC[C@H]1C(=O)NCc1ccc(/C(N)=N/O)cc1)C1CCCCC1', 'false'),
  ('CC(C)(C)c1ccc(O)c(O)c1', 'false'),
  ('O=C1c2ccc(O)c(O)c2C(=O)c2c(O)ccc(O)c21', 'false'),
  ('OCCN1CN(CCO)CN(CCO)C1', 'true');
